Target: T1, human CD33 extracellular domain (human, UniProt P20138 18-259)
T1 construct: soluble monomeric ECD; also called human CD33 ECD; hCD33
Experiment: SPR, Fab captured, 37C
observed.property: pKd
In simple prose, pKd is minus the logarithm base ten of a concentration in moles per litre.

Recorded pKd, per entry:
Query :: I would be grateful if you could share the reported pKd for ADI-10164 Fab (Fab, V domains shown, Fab fragment; also called Ab18) VH: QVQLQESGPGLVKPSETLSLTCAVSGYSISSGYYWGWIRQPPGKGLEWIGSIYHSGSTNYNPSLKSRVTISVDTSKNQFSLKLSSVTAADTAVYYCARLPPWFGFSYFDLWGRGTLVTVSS VL: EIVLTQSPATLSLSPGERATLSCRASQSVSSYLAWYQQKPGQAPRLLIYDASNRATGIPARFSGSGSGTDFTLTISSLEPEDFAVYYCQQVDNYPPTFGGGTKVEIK .
Result :: 7.50

Query :: Then ADI-11826 Fab (Fab, V domains shown, Fab fragment; also called Ab26) VH: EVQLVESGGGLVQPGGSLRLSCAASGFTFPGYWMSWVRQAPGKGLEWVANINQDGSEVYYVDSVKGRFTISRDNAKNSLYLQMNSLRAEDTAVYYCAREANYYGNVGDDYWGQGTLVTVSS VL: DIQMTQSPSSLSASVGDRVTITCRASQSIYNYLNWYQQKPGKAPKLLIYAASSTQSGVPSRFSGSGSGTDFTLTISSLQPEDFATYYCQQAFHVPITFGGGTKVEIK ?
Result :: 8.58

Query :: Then ADI-10163 Fab (Fab, V domains shown, Fab fragment; also called Ab17) VH: QVQLQESGPGLVKPSQTLSLTCTVSGGSISSGGYYWSWIRQHPGKGLEWIGSIYYSGSTYYNPSLKSRVTISVDTSKNQFSLKLSSVTAADTAVYYCARDRLDYSYNYGMDVWGQGTTVTVSS VL: DIQMTQSPSSLSASVGDRVTITCRASQSISSYLNWYQQKPGKAPKLLIYGASSLQSGVPSRFSGSGSGTDFTLTISSLQPEDFATYYCQQVYSAPFTFGGGTKVEIK ?
Result :: 7.27

We next turn to a different binder, shown below.
Query :: I would be grateful if you could share the reported pKd for ADI-10157 Fab (Fab, V domains shown, Fab fragment; also called Ab13) VH: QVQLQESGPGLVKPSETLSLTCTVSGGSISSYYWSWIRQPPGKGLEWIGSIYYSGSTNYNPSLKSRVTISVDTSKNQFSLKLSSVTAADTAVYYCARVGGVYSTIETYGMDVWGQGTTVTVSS VL: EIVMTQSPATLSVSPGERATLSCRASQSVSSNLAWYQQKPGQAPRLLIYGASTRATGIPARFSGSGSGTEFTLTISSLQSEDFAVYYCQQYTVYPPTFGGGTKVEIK .
Result :: 8.57
